Test System: PfGCN5 bromodomain (Plasmodium falciparum, UniProt Q8IB67)
Sequence (Q8IB67 entry or part of it): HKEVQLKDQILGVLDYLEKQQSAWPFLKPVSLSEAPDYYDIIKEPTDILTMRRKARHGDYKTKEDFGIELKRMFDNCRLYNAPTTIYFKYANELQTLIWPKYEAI
Test Method Notes: biochemical
Assay type: binding
Measurement Parameters: hit mixture containing the fragment, 400 µM each fragment
Assay Readout: Initial Mixture PfGCN5 PrOF NMR Δδ

[
  {
    "Smiles Notation": "Nc1ccc2c(c1)N(C(=O)C1CC1)CCC2",
    "Result": "++++ (++++ = Δδ > 0.2)"
  },
  {
    "Smiles Notation": "CCC(=O)NCc1nccc(N(C)C)n1",
    "Result": "++++ (++++ = Δδ > 0.2)"
  }
]

---

Test System: PfGCN5 bromodomain (Plasmodium falciparum, UniProt Q8IB67)
Test Method Notes: 1H-15N HSQC NMR titration with PfGCN5
Assay type: binding
Excerpt: To cross-validate our findings, ^1H-^15N HSQC NMR was used to further examine the binding mode of 9 to PfGCN5 in the presence and absence of known ligands. The ^1H-^15N HSQC spectrum of PfGCN5 is unassigned. For ease of spectral interpretation, all resonances that were distinctly visible were assigned as 1-64. […] This affinity with the non-fluorine-labeled protein is similar but higher than the affinity determined by PrOF NMR. […]
Assay Readout: pKd
Give bare numbers, as −log10 of the molar value.

pKd measured on Nc1ccc2c(c1)N(C(=O)C1CC1)CCC2 [Fragment 9] = 5.12
